tested on: U2OS; experiment: Multiplex assay against U2OS; type: toxicity, cell-based; conditions: human, 24 h, 10 µM, compound concentration 10 uM, replicate 1
Please use y whenever Population Healthy Nuclei (%) is not below 60%, and n whenever it is.

- MOLECULE: "Cl.Cl.OCCOCCN1CCN(C(c2ccccc2)c2ccc(Cl)cc2)CC1 (stereo unspecified) [HYDROXYZINE HYDROCHLORIDE]"
  STUDY TARGET: "U2OS"
  CLASS ASSIGNMENT: "y"
- MOLECULE: "Cc1cc(NC(=O)NCCN2CCC(O)(Cc3ccccc3)CC2)c2ccccc2n1 [PALOSURAN]"
  STUDY TARGET: "U2OS"
  CLASS ASSIGNMENT: "y"
- MOLECULE: "Cc1cc(O)c(-c2ccc([C@@H](C)CN(C)C)cc2)c2c1[nH]c(=O)c1sccc12"
  STUDY TARGET: "U2OS"
  CLASS ASSIGNMENT: "n"
- MOLECULE: "CC(C)C[C@H](CO)Nc1nc(S[C@@H](C)c2ccccc2)nc2nc(N)sc12 [AZD-8797]"
  STUDY TARGET: "U2OS"
  CLASS ASSIGNMENT: "n"
- MOLECULE: "Cc1ccc(OCC(O)C(C)NC(C)C)c2c1CCC2.Cl (stereo unspecified)"
  STUDY TARGET: "U2OS"
  CLASS ASSIGNMENT: "n"
- MOLECULE: "Cc1sc2c(c1C)C(c1ccc(Cl)cc1)=N[C@H](CC(=O)OC(C)(C)C)c1nnc(C)n1-2"
  STUDY TARGET: "U2OS"
  CLASS ASSIGNMENT: "n"
- MOLECULE: "O=C(NCCNCC(O)COc1ccc(O)cc1)N1CCOCC1.O=C(NCCNCC(O)COc1ccc(O)cc1)N1CCOCC1.O=C(O)/C=C/C(=O)O (stereo unspecified) [XAMOTEROL FUMARATE]"
  STUDY TARGET: "U2OS"
  CLASS ASSIGNMENT: "y"
- MOLECULE: "COc1ccc2c(c1OCc1ccccc1)C[C@@H](C(=O)O)N(C(=O)C(c1ccccc1)c1ccccc1)C2 [OLODANRIGAN]"
  STUDY TARGET: "U2OS"
  CLASS ASSIGNMENT: "y"
- MOLECULE: "CCC(=O)OCC(=O)[C@@]1(OC(=O)CC)[C@@H](C)C[C@H]2[C@@H]3CCC4=CC(=O)C=C[C@]4(C)[C@@]3(Cl)[C@@H](O)C[C@@]21C [BECLOMETHASONE DIPROPIONATE]"
  STUDY TARGET: "U2OS"
  CLASS ASSIGNMENT: "n"
- MOLECULE: "COc1ccc2[nH]c(I)c(CCNC(C)=O)c2c1 [IODOMELATONIN]"
  STUDY TARGET: "U2OS"
  CLASS ASSIGNMENT: "y"

Query: Tell me whether Population Healthy Nuclei (%) is at least 60% here: Nc1nc(-c2ccco2)c2cnn(Cc3ccccc3F)c2n1
Response: n

Query: Has COc1cc2nc(N3CCN(C(=O)c4ccco4)CC3)nc(N)c2cc1OC.Cl [PRAZOSIN HYDROCHLORIDE] a recorded Population Healthy Nuclei (%) greater than or equal to 60%?
Response: y
